Recorded values, source patent US5571822A.

Test system: HCT116
Assay: NCI in vitro tumor cell screen, HCT116 colon cancer
Assay type: cell-based
Conditions: Homo sapiens, HCT-116
Criterion: GI50 strictly under 400 nM. Met: True. Not met: False.

COc1cccc(-c2cc(=O)c3cc(N4CCN(C)CC4)ccc3[nH]2)c1 [compound 32]
False

Please state whether GI50 is below 400 nM for O=c1cc(-c2cccc(Br)c2)[nH]c2cc3c(cc12)OCO3 [compound 15]
False

GI50 under 400 nM? Item: COc1cccc(-c2cc(O)c3cc(N4CCOCC4)ccc3n2)c1 [compound 31]
True

Input CCOc1cccc(-c2cc(=O)c3cc4c(cc3[nH]2)OCO4)c1 [compound 18] ; condition: GI50 strictly below 400 nM. Does it hold?
True

Decide: GI50 of O=c1cc(-c2cccc(F)c2)[nH]c2cc3c(cc12)OCO3 [compound 13] strictly below 400 nM?
True

###

System: tubulin
Experiment: inhibition of radiolabeled colchicine binding to tubulin (ICB)
Design: species or system bovine
Conditions: evaluated only when polymerization IC50 ≤ 1.0 μM; inhibitor equimolar with [3H]colchicine, 5-fold molar excess over tubulin
Text: Studies conducted in support of the present invention indicate that one mode of action of the 2-phenyl-4-quinolone compounds, as antitumor agents, is an ability to bind to tubulin and inhibit cell mitosis. […] […]. […]. […] […]. Electrophoretically homogeneous bovine brain tubulin was purified as described previously (Hamel, et al., 1984). Combretastatin A-4 was a generous gift of Dr. G. R. Pettit, Arizona State University. […]
measured_quantity: ICB (% inhibition of colchicine binding) (%)
Give bare numbers, in %.

COc1ccc(CCc2cc(OC)c(OC)c(OC)c2)cc1O [dihydrocombretastatin A-4, reference compound]
65
O=c1cc(-c2cccc(Br)c2)[nH]c2cc3c(cc12)OCO3
26

The record that follows has no ICB (% inhibition of colchicine binding) shown yet.
Using the record for `O=c1cc(-c2cccc(O)c2)[nH]c2cc3c(cc12)OCO3` , report its ICB (% inhibition of colchicine binding).
26

###

Test system: HCT116
Assay: NCI in vitro tumor cell screen, HCT116 colon cancer
Assay type: cell-based
Details: Homo sapiens, HCT-116
What log10 of GI50 was measured for each of the following?
Heads up: the numbers are on a log10 scale; they represent GI50 in nM.

A selection of reference data follows.
Nc1cccc(-c2cc(=O)c3cc4c(cc3[nH]2)OCO4)c1
2.68
O=c1cc(-c2cccc(O)c2)[nH]c2cc3c(cc12)OCO3
3.26
O=c1cc(-c2cccc(OC(F)(F)F)c2)[nH]c2cc3c(cc12)OCO3
1.15
CNc1cccc(-c2cc(=O)c3cc4c(cc3[nH]2)OCO4)c1
2.39

In the following, a different compound is considered.
Form: Entry = `O=c1cc(-c2cccc(OCc3ccccc3)c2)[nH]c2cc3c(cc12)OCO3` | System = HCT116 | log10 of GI50 = ____
2.59
